# MEASURED TARGET: furin, P09958;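 note: purified furin at 1:10 enzyme:substrate in 50 mM HEPES pH 7.5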
# Sequence (P09958 whole entry): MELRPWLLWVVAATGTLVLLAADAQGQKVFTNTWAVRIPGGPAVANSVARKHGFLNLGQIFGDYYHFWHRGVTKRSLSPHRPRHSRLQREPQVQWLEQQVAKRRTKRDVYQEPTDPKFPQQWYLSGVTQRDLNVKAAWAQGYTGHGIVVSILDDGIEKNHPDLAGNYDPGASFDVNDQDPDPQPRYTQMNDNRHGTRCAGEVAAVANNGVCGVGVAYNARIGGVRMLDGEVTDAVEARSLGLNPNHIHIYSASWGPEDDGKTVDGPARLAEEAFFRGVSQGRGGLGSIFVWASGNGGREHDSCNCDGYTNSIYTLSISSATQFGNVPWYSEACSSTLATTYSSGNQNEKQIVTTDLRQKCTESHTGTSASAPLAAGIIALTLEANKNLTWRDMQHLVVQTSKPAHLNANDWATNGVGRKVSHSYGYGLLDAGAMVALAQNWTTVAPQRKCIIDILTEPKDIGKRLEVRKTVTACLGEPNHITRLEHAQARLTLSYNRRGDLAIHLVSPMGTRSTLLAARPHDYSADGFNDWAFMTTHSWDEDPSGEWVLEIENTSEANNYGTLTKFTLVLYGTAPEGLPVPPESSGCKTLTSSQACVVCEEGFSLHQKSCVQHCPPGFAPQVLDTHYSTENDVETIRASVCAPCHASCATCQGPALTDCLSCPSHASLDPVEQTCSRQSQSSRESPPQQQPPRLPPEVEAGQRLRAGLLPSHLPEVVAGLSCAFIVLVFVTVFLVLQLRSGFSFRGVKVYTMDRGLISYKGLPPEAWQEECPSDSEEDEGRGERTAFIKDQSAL
# EXPERIMENT SUMMARY: furin cleavage Z-score vs untreated control; higher = more cleavage, active = 3.5 or more, inactive = 1 or less, 8 variable residues between constant flanks
# EXPERIMENTAL PARAMETERS: 15 min
Some of the results follow. No count for the full screen is at hand.
Valid outcomes are listed here; reply with one: True = active, False = inactive

Query block: Would you mind telling me which call this test gave CATWAQPGYPAGNASASA [HC198] ?
Result block: False

Query block: Would you mind telling me which call this test gave CARRRRAVGLAGNASASA [FS-2595] ?
Result block: True

Query block: Would you mind telling me which call this test gave CARTMRSSAGAGNASASA [FS-2831] ?
Result block: False

Query block: Would you mind telling me which call this test gave CAWISSECTTAGNASASA [HC1142] ?
Result block: False

Query block: Would you mind telling me which call this test gave CAGITGDNTTAGNASASA [HC1340] ?
Result block: False

Query block: Would you mind telling me which call this test gave CASTGFTKVCAGNASASA [HC439] ?
Result block: False

Query block: Would you mind telling me which call this test gave CADVVTSTWVAGNASASA [HC2151] ?
Result block: False

Query block: Would you mind telling me which call this test gave CAVSPRVKRRAGNASASA [FS-1105] ?
Result block: True

Query block: Would you mind telling me which call this test gave CARIKRGNTTAGNASASA [FS-2952] ?
Result block: True

Query block: Would you mind telling me which call this test gave CAGACYSIEPAGNASASA [HC1595] ?
Result block: False

Query block: Would you mind telling me which call this test gave CAVVLCSMSYAGNASASA [HC2025] ?
Result block: False

Query block: Would you mind telling me which call this test gave CARAGRSAPLAGNASASA [FS-2883] ?
Result block: True

Query block: Would you mind telling me which call this test gave CALSPRTFHPAGNASASA [TR5] ?
Result block: False

Query block: Would you mind telling me which call this test gave CAGDSRVMRWAGNASASA [FS-591] ?
Result block: False

Query block: Would you mind telling me which call this test gave CARAGRSGKEAGNASASA [FS-1990] ?
Result block: False

Query block: Would you mind telling me which call this test gave CAARGGRAAIAGNASASA [HC1627] ?
Result block: False

Query block: Would you mind telling me which call this test gave CAAAIGSVGLAGNASASA [HC1079] ?
Result block: False

Query block: Would you mind telling me which call this test gave CAEVDCHRPSAGNASASA [HC2351] ?
Result block: False

Query block: Would you mind telling me which call this test gave CATDCFRKHPAGNASASA [HC452] ?
Result block: False

Query block: Would you mind telling me which call this test gave CALSPRPISYAGNASASA [HC737] ?
Result block: False

Query block: Would you mind telling me which call this test gave CARAGRSKRTAGNASASA [FS-486] ?
Result block: True

Query block: Would you mind telling me which call this test gave CAVSPRVKRPAGNASASA [FS-1104] ?
Result block: False

Query block: Would you mind telling me which call this test gave CASTRCSAHLAGNASASA [HC2513] ?
Result block: False

Query block: Would you mind telling me which call this test gave CARRRRLVWTAGNASASA [FS-2079] ?
Result block: False

Query block: Would you mind telling me which call this test gave CADVMEECSQAGNASASA [HC1810] ?
Result block: False

Query block: Would you mind telling me which call this test gave CAEVVTNTWVAGNASASA [HC158] ?
Result block: False

Query block: Would you mind telling me which call this test gave CAGDKELRTGAGNASASA [EK10] ?
Result block: False
